# Test system: goosegrass (Eleusine indica)
# Method: Test A postemergence, goosegrass
# Type: in vivo
# Assay Setup: 31 g ai/ha, 0 to 100 scale, 10 days
Reported Plant response rating, Goosegrass values are given for each entry in this list.
Assay Metric: Plant response rating, Goosegrass

| Molecule | System Name | Assay Metric | Readout Value |
| --- | --- | --- | --- |
| Cc1cc(C)c(N2CCC(OC3CC3)C2=O)cc1NS(=O)(=O)C(F)(F)F (stereo not drawn) | goosegrass (Eleusine indica) | Plant response rating, Goosegrass | 80 |
| Cc1cc(C)c(N(COC(=O)C(C)(C)C)S(=O)(=O)C(F)(F)F)cc1N1CCC(OC2CCCC2)C1=O (stereo not drawn) | goosegrass (Eleusine indica) | Plant response rating, Goosegrass | 50 |
| Cc1cc(C)c(N2CCC(OC3CCCC3)C2=O)cc1NS(=O)(=O)C(F)(F)F (stereo not drawn) | goosegrass (Eleusine indica) | Plant response rating, Goosegrass | 80 |
| Cc1cc(C)c(N(COC(=O)C(C)(C)C)S(=O)(=O)C(F)(F)F)cc1N1CCC(OC2CC2)C1=O (stereo not drawn) | goosegrass (Eleusine indica) | Plant response rating, Goosegrass | 90 |
| Cc1cc(C)c(N2CCC(OC3CCC3)C2=O)cc1NS(=O)(=O)C(F)(F)F (stereo not drawn) | goosegrass (Eleusine indica) | Plant response rating, Goosegrass | 70 |
| Cc1cc(C)c(N(COC(=O)C(C)(C)C)S(=O)(=O)C(F)(F)F)cc1N1CCC(OC2CCC2)C1=O (stereo not drawn) | goosegrass (Eleusine indica) | Plant response rating, Goosegrass | 80 |

###

Reported Plant response rating, Wheat values are given for each entry in this list.
# Test system: wheat (Triticum aestivum)
# Method: Test A preemergence, wheat
# Assay type: in vivo
# Assay Setup: 31 g ai/ha, 0 to 100 scale, 10 days

| Compound | Plant response rating, Wheat |
| --- | --- |
| Cc1cc(C)c(N(COC(=O)C(C)(C)C)S(=O)(=O)C(F)(F)F)cc1N1CCC(OC2CC2)C1=O (stereo not drawn) [Compound 7] | 0 |
| Cc1cc(C)c(N(COC(=O)C(C)(C)C)S(=O)(=O)C(F)(F)F)cc1N1CCC(OC2CCC2)C1=O (stereo not drawn) [Compound 8] | 0 |
| Cc1cc(C)c(N(COC(=O)C(C)(C)C)S(=O)(=O)C(F)(F)F)cc1N1CCC(OC2CCCC2)C1=O (stereo not drawn) [Compound 5] | 0 |
| Cc1cc(C)c(N2CCC(OC3CCCC3)C2=O)cc1NS(=O)(=O)C(F)(F)F (stereo not drawn) [Compound 6] | 80 |
| Cc1cc(C)c(N2CCC(OC3CCC3)C2=O)cc1NS(=O)(=O)C(F)(F)F (stereo not drawn) [Compound 4] | 70 |
| Cc1cc(C)c(N2CCC(OC3CC3)C2=O)cc1NS(=O)(=O)C(F)(F)F (stereo not drawn) [Compound 3] | 100 |

###

Reported Corn plant response rating (crop injury, 0 = no effect, 100 = complete kill) at 31 g/ha values are given for each entry in this list.
# System: corn (Zea mays)
# Method: Test A postemergence, corn
# Format: in vivo
# Assay Setup: post-emergence, 240 h, 31 g ai/ha, 0 to 100 scale, 10 days
# Source text: […]
Assay Metric: Corn plant response rating (crop injury, 0 = no effect, 100 = complete kill) at 31 g/ha (%)

| Compound | Readout Value |
| --- | --- |
| Cc1cc(C)c(N(COC(=O)C(C)(C)C)S(=O)(=O)C(F)(F)F)cc1N1CCC(OC2CCCC2)C1=O (centres unmarked) | 0 |
| Cc1cc(C)c(N2CCC(OC3CC3)C2=O)cc1NS(=O)(=O)C(F)(F)F (centres unmarked) | 90 |
| Cc1cc(C)c(N2CCC(OC3CCCC3)C2=O)cc1NS(=O)(=O)C(F)(F)F (centres unmarked) | 0 |
| C=CCOC1CCN(c2cc(NS(=O)(=O)C(F)(F)F)c(C)cc2C)C1=O (centres unmarked) | 0 |
| Cc1cc(C)c(N2CCC(OC3CCC3)C2=O)cc1NS(=O)(=O)C(F)(F)F (centres unmarked) | 90 |
| C#CCOC1CCN(c2cc(NS(=O)(=O)C(F)(F)F)c(C)cc2C)C1=O (centres unmarked) | 50 |
| Cc1cc(C)c(N(COC(=O)C(C)(C)C)S(=O)(=O)C(F)(F)F)cc1N1CCC(OC2CC2)C1=O (centres unmarked) | 90 |
| Cc1cc(C)c(N(COC(=O)C(C)(C)C)S(=O)(=O)C(F)(F)F)cc1N1CCC(OC2CCC2)C1=O (centres unmarked) | 30 |

###

# Test system: foxtail, giant (giant foxtail, Setaria faberi)
# Method: Test C preemergence, giant foxtail
# Format: in vivo
# Assay Setup: 125 g ai/ha Preemergence; 0 is no effect, 100 is complete control
Assay Metric: Plant response rating (0 to 100 scale), Foxtail, Giant

| Molecule | System Name | Readout Value |
| --- | --- | --- |
| Cc1c(N2CCC(OC3CCC3)C2=O)cc(N(COC(=O)C(C)(C)C)S(=O)(=O)C(F)(F)F)c(C)c1C (centres unmarked) [Compound 51] | foxtail, giant (giant foxtail, Setaria faberi) | 90 |
| CCOC(=O)N(c1cc(N2CCC(OC3CC3)C2=O)c(C)cc1C)S(=O)(=O)C(F)(F)F (centres unmarked) [Compound 19] | foxtail, giant (giant foxtail, Setaria faberi) | 10 |
| Cc1cc(C)c(N2CCC(OCC3CCC3(F)F)C2=O)cc1NS(=O)(=O)C(F)(F)F (centres unmarked) [Compound 52] | foxtail, giant (giant foxtail, Setaria faberi) | 100 |
| Cc1cc(C)c(N(C(=O)OCC(C)C)S(=O)(=O)C(F)(F)F)cc1N1CCC(OC2CC2)C1=O (centres unmarked) [Compound 21] | foxtail, giant (giant foxtail, Setaria faberi) | 100 |
| C=CCO/N=C1\CCN(c2cc(NS(=O)(=O)C(F)(F)F)c(C)cc2C)C1=O [Compound 11] | foxtail, giant (giant foxtail, Setaria faberi) | 100 |
| Cc1c(N2CCC(OC3CC3)C2=O)cc(N(COC(=O)C(C)(C)C)S(=O)(=O)C(F)(F)F)c(C)c1C (centres unmarked) [Compound 49] | foxtail, giant (giant foxtail, Setaria faberi) | 90 |
| CCCC(=O)OCN(c1cc(N2CCC(OC3CC3)C2=O)c(C)cc1C)S(=O)(=O)C(F)(F)F (centres unmarked) [Compound 20] | foxtail, giant (giant foxtail, Setaria faberi) | 100 |
| C#CCO/N=C1\CCN(c2cc(NS(=O)(=O)C(F)(F)F)c(C)cc2C)C1=O [Compound 13] | foxtail, giant (giant foxtail, Setaria faberi) | 100 |

###

# System: ragweed (common ragweed, Ambrosia artemisiifolia)
# Method: Test C postemergence, ragweed
# Format: in vivo
# Assay Setup: 125 g ai/ha Postemergence; 0 is no effect, 100 is complete control
Assay Metric: Plant response rating (0 to 100 scale), Ragweed

| Compound | Readout Value |
| --- | --- |
| CO/N=C1\CCN(c2cc(NS(=O)(=O)C(F)(F)F)c(C)cc2C)C1=O | 80 |
| CCCC(=O)OCN(c1cc(N2CCC(OC3CC3)C2=O)c(C)cc1C)S(=O)(=O)C(F)(F)F (centres unmarked) | 90 |
| Cc1cc(C)c(N(C(=O)OCC(C)C)S(=O)(=O)C(F)(F)F)cc1N1CCC(OC2CC2)C1=O (centres unmarked) | 90 |
| CCO/N=C1\CCN(c2cc(NS(=O)(=O)C(F)(F)F)c(C)cc2C)C1=O | 90 |
| C#CCO/N=C1\CCN(c2cc(NS(=O)(=O)C(F)(F)F)c(C)cc2C)C1=O | 90 |
| CCOC(=O)N(c1cc(N2CCC(OC3CC3)C2=O)c(C)cc1C)S(=O)(=O)C(F)(F)F (centres unmarked) | 90 |
| Cc1cc(C)c(N2CCC(OCC3CC3)C2=O)cc1NS(=O)(=O)C(F)(F)F (centres unmarked) | 80 |
| COC(=O)N(c1cc(N2CCC(OC3CC3)C2=O)c(C)cc1C)S(=O)(=O)C(F)(F)F (centres unmarked) | 90 |
| Cc1c(N2CCC(OC3CC3)C2=O)cc(N(COC(=O)C(C)(C)C)S(=O)(=O)C(F)(F)F)c(C)c1F (centres unmarked) | 90 |
| C=CCO/N=C1\CCN(c2cc(NS(=O)(=O)C(F)(F)F)c(C)cc2C)C1=O | 80 |
| CC(=O)N(c1cc(N2CCC(OC3CC3)C2=O)c(C)cc1C)S(=O)(=O)C(F)(F)F (centres unmarked) | 90 |
| Cc1cc(C)c(N2CCC(O)C2=O)cc1NS(=O)(=O)C(F)(F)F (centres unmarked) | 80 |
| Cc1cc(C)c(N2CC/C(=N\O)C2=O)cc1NS(=O)(=O)C(F)(F)F | 50 |
| Cc1cc(C)c(N(C(=O)OC(C)C)S(=O)(=O)C(F)(F)F)cc1N1CCC(OC2CC2)C1=O (centres unmarked) | 50 |

The values you see were collected from patent US20240158348A1.
